- target.entity: hKv3.1b (Homo sapiens, UniProt P48547)
- Construct: expressed in transfected cells
- Sequence (P48547 1-585 isoform P48547-2): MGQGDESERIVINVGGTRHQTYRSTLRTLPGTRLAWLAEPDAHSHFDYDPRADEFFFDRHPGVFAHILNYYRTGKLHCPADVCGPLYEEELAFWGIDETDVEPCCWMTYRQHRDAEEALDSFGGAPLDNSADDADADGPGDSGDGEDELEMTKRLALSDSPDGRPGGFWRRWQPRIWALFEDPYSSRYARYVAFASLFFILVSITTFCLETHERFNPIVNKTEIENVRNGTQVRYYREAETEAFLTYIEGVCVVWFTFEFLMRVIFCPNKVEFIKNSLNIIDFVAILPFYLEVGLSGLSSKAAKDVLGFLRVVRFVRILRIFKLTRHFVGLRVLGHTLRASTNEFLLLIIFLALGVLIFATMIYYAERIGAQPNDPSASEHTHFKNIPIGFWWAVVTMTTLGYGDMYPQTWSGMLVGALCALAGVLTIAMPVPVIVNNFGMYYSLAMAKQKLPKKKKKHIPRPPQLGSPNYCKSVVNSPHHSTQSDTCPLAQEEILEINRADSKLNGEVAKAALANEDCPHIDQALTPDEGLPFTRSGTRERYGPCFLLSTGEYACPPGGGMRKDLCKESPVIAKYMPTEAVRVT
- protocol.details: Automated patch clamp (QPatch-16x) on HEK-293 cells stably expressing hKv3.1b
- Type: cell-based
- measurement.setup: concentration needed to shift the activation threshold 5 mV
- Experimental: HEK-293 cells stably expressing hKv3.1b were used for the experiments. Cells were cultured in DMEM medium supplemented with 10% Fetal Bovine Serum, 100 ug/mL Geneticidin and 100 u/mL Penicillin/Streptomycin (all from Gibco). Cells were grown to 80-90% confluency at 37° C. and 5% CO2. […] Leak subtraction protocol was applied at −33% of the sweep amplitude, and serial resistance values were constantly monitored. […]
experimental.readout: ECdelta5 mV
Record the result as a number with its unit.

COc1cccnc1CNC(=O)c1ccn(S(=O)(=O)c2ccc(C)cc2)c1 3600 nM
Cc1cnc(CNC(=O)c2ccn(S(=O)(=O)c3ccccc3)c2)c(Cl)n1 3500 nM
Cc1ccc(S(=O)(=O)n2ccc(C(=O)NCc3cnccn3)c2)cc1 1300 nM

input: Fill in ECdelta5 mV for record Cc1ccc(S(=O)(=O)n2ccc(C(=O)NCc3cc(C)n[nH]3)c2)cc1
output: 2600 nM

input: Fill in ECdelta5 mV for record Cc1ccc(S(=O)(=O)n2ccc(C(=O)NCc3cnc(Cl)cn3)c2)cc1
output: 660 nM

input: Fill in ECdelta5 mV for record COc1ccc(S(=O)(=O)n2ccc(C(=O)NCc3ncc(C)cn3)c2)c(Cl)c1
output: 2500 nM
